system: NCI-H226 lung; assay: NCI-60 one-dose screen, 48 h (100 = growth as untreated, 0 = no growth, -100 = all killed); settings: 10 µM unless noted
The panel holds about 83,000 compounds, 20% with a hit somewhere; the sample as a whole holds those more often. The source made the active and inactive calls. Rule for the calls: active = growth percent below 10; inactive = the rest.
value-type: growth

// solved cases for growth follow
>  <molecule>
COc1ccc2nc3cc(Cl)ccc3c(N3CCN(c4ccnc(N5CCOCC5)n4)CC3)c2c1

>  <growth>
89.2% (inactive)

$$$$
>  <molecule>
COc1ccc2nc3cc(Cl)ccc3c(NCCNCC(O)CO)c2c1 (stereo not given)

>  <growth>
43.1% (inactive)

$$$$
>  <molecule>
CC(C)CC(CC1=CCC2CC1C2(C)C)C1=C(O)C(C)(C)C(=O)C(C)(C)C1=O (stereo not given)

>  <growth>
13.7% (inactive)

$$$$
>  <molecule>
COc1cc(C(=O)/C=C/c2c(C)n([O-])c3ccc(C)cc3[n+]2=O)cc(OC)c1OC

>  <growth>
72.7% (inactive)

$$$$
>  <molecule>
C=C1CC2(OC1=O)C(=O)N(CCCCCCCCCCCCN1C(=O)C3(CC(=C)C(=O)O3)c3ccccc31)c1ccccc12 (stereo not given)

>  <growth>
78.6% (inactive)

$$$$
>  <molecule>
Cc1ccn2c(-c3csc(Nc4cccc(O)c4)n3)c(C)nc2c1

>  <growth>
35.7% (inactive)

$$$$
>  <molecule>
O=C(O)c1ccccc1Nc1cccc(S(F)(F)(F)(F)F)c1

>  <growth>
88.9% (inactive)

$$$$
>  <molecule>
COCCOC(=O)C1=C(C)NC(=S)NC1c1ccc2c(c1)OCO2 (stereo not given)

>  <growth>
90.2% (inactive)

$$$$
>  <molecule>
Nc1ccc(N2CCOCC2)cc1

>  <growth>
102% (inactive)

$$$$

# ---- query molecule ----
I would be grateful if you could share the reported growth for CN(C)CCCC(=O)Nc1ccc(Cn2nnc3c2C(=O)c2nnn(Cc4ccc(NC(=O)CCCN(C)C)cc4)c2C3=O)cc1 . 102% (inactive)

###

growth listing for selected molecules.
system: CCRF-CEM leukemia; assay: NCI-60 one-dose screen, 48 h (100 = growth as untreated, 0 = no growth, -100 = all killed); details: 10 µM unless noted
About 83,000 compounds went through this panel and 20% of them were active in at least one assay; those are over-represented in the sample as a whole.
Provide the reading as a plain figure in %.

// solved cases for growth follow
>  <molecule>
CCOC(=O)c1cnc2ccc(OC)cc2c1Nc1cccc(S(=O)(=O)NC)c1

>  <scale-unit>
%

>  <growth>
93

$$$$
>  <molecule>
CCN(C(=O)CN1CCN(c2cc3c(cc2F)c(=O)c(C(=O)O)cn3CC)CC1)c1nc(-c2ccccc2)cs1

>  <scale-unit>
%

>  <growth>
14

$$$$
>  <molecule>
O=C1c2ccccc2-c2nccc3cc(Cl)nc1c23

>  <scale-unit>
%

>  <growth>
19.4

$$$$
>  <molecule>
COc1ccc(CN(c2ccc(C)cc2)C2OC(=O)c3ccccc32)cc1OC (stereo unspecified)

>  <scale-unit>
%

>  <growth>
91.3

$$$$
>  <molecule>
CCN(CC)CCCC(C)NCCCNc1cccc2cccnc12 (stereo unspecified)

>  <scale-unit>
%

>  <growth>
96.9

$$$$

I would be grateful if you could share the reported growth for CCCNc1nc(SC)nc(-c2cccc(N)c2)c1C#N . 108

###

growth listing for selected compounds.
system: SK-MEL-28 melanoma; assay: NCI-60 one-dose screen, 48 h (100 = growth as untreated, 0 = no growth, -100 = all killed); settings: 10 µM unless noted
Compounds without any hit were thinned out: in the full panel of roughly 83,000, 20% have a hit.
Provide the reading as a plain figure in %.

// solved cases for growth follow
>  <input-smiles>
CCCCCN(CCCCC)CCC[C@@H](C)[C@H]1CC[C@H]2[C@@H]3[C@H](OCCCN)C[C@@H]4C[C@H](OCCCN)CC[C@]4(C)[C@H]3C[C@H](OCCCN)[C@]12C

>  <scale-unit>
%

>  <measured-value>
27.9

$$$$
>  <input-smiles>
CC1=C(NCCN2CCCC2)C(=O)c2c(OCc3ccc(C(F)(F)F)cc3)cccc2C1=O

>  <scale-unit>
%

>  <measured-value>
54.6

$$$$
>  <input-smiles>
O=c1ccc2cc3ccccc3cc2[nH]1

>  <scale-unit>
%

>  <measured-value>
124

$$$$

# ---- query compound ----
I would be grateful if you could share the reported growth for Cl/C(=N\Nc1ccccc1)c1ccccc1 . 101

###

system: NCI-H322M lung; test: NCI-60 one-dose screen, 48 h (100 = growth as untreated, 0 = no growth, -100 = all killed); settings: 10 µM unless noted
This is part of a sample that, as a whole, favours compounds with a hit. Of some 83,000 tested, about 20% had one in any assay. The source made the active and inactive calls. The calls were made as follows: active = growth percent below 10; inactive = the rest.
value-type: growth

>  <molecule>
COc1cc(-c2cnc3nonc3n2)c(OC)c2c1OCO2

>  <measured-value>
90.9% (inactive)

$$$$
>  <molecule>
CC(C)(C)n1cc(-c2ccnc(NCCCNS(=O)(=O)c3cccc4ccccc34)c2)c(-c2cccc(O)c2)n1

>  <measured-value>
43.4% (inactive)

$$$$
>  <molecule>
COc1cc(C2CC(=O)c3c(C)nn(-c4nc5ccccc5[nH]4)c3C2)cc(OC)c1OC (centres undefined)

>  <measured-value>
67.8% (inactive)

$$$$
>  <molecule>
CCCCCCNC(=O)Oc1ccc(/C(=C(\C)c2ccccc2)c2ccc(OCCN(CC)CC)cc2)cc1

>  <measured-value>
90% (inactive)

$$$$
>  <molecule>
CCN(CC)CC(O)CNc1c2ccc([N+](=O)[O-])cc2nc2cc(OC)c(OC)cc12 (centres undefined)

>  <measured-value>
-43.5% (active)

$$$$

I would be grateful if you could share the reported growth for COc1cccc2c1C(=O)c1c(O)c3c(c(O)c1C2=O)C[C@@](O)(/C(C)=N/NC(=O)c1ccc(Cl)cc1)C[C@@H]3OC1CC(N)C(O)C(C)O1 (some centres undefined) . -35.3% (active)

I would be grateful if you could share the reported growth for CCCCCC(=O)N(CCCC)CCCC . 89.4% (inactive)

I would be grateful if you could share the reported growth for O=C(CN1CCN(c2cc3c(cc2F)c(=O)c(C(=O)O)cn3C2CC2)CC1)Nc1nc(-c2ccccc2)cs1 . 102% (inactive)

I would be grateful if you could share the reported growth for COC1C/C(=N\O)C2OC(c3ccccc3)OCC2O1 (centres undefined) . 99.9% (inactive)

###

system: RPMI-8226 leukemia; assay: NCI-60 one-dose screen, 48 h (100 = growth as untreated, 0 = no growth, -100 = all killed); conditions: 10 µM unless noted
Compounds without any hit were thinned out: in the full panel of roughly 83,000, 20% have a hit.
Label True when growth < 30%; otherwise False.

Answered examples (7):
>  <compound>
CCOC(=O)C(=Cc1ccccc1F)C(=O)OCC

>  <class-assignment>
False

$$$$
>  <compound>
Cc1ccc(C2CC3c4ccccc4C2C2CCCCN32)cc1 (stereo not drawn)

>  <class-assignment>
False

$$$$
>  <compound>
Cn1cc(-c2nc(-c3c[nH]c4ccccc34)cs2)c2cccnc21

>  <class-assignment>
True

$$$$
>  <compound>
CC(=O)C1=C(O)C=C2Oc3c(C(=O)/C=C/c4c(Cl)cccc4Cl)c(O)c(C)c(O)c3[C@]2(C)C1=O

>  <class-assignment>
True

$$$$
>  <compound>
Cc1[nH]n(-c2ccccc2)c2nc3nncc3c(-c3ccc(Cl)cc3)c12

>  <class-assignment>
False

$$$$
>  <compound>
CCCCCCCCCCCCCC(=O)C(C)N (stereo not drawn)

>  <class-assignment>
False

$$$$
>  <compound>
CC[C@H](CO)Nc1nc(NCc2ccccc2)n2ncc(C(C)C)c2n1

>  <class-assignment>
True

$$$$

Proceed to the following item.
# TODO verify growth < 30% strictly for this compound: CC/C=C\C[C@H](O)C/C=C1/C(=O)C=C[C@@H]1C/C=C\CCCC(=O)NC True

###

growth listing for selected molecules.
system: SNB-75 CNS; assay: NCI-60 one-dose screen, 48 h (100 = growth as untreated, 0 = no growth, -100 = all killed); settings: 10 µM unless noted
The panel holds about 83,000 compounds, 20% with a hit somewhere; the sample as a whole holds those more often.
Provide the reading as a plain figure in %.

>  <molecule>
COc1ccc2nc(NC(=O)c3cccnc3Nc3cc(OC)c(OC)c(OC)c3)sc2c1

>  <scale-unit>
%

>  <growth>
14.1

$$$$
>  <molecule>
CC#Cc1nc2ccccc2c(=O)[nH]1

>  <scale-unit>
%

>  <growth>
-2.64

$$$$
>  <molecule>
CCOC(=O)C(C#N)C1CCCCC1 (stereo not given)

>  <scale-unit>
%

>  <growth>
97.9

$$$$
>  <molecule>
Cc1cc(=O)oc2cc(Oc3nc(-c4ccc(Cl)cc4)cn4c(-c5ccc(Cl)cc5)cnc34)ccc12

>  <scale-unit>
%

>  <growth>
91.6

$$$$
>  <molecule>
CC1=C(NCCN2CCCC2)C(=O)c2c(OCc3cccc(Cl)c3)cccc2C1=O

>  <scale-unit>
%

>  <growth>
75.1

$$$$

I would be grateful if you could share the reported growth for O=C1c2c[n+](Cc3ccccc3)ccc2-c2nc3ccccc3c3ccnc1c23 . -80.7

I would be grateful if you could share the reported growth for COC1/C=C\OC2(C)Oc3c(C)c(O)c4c(O)c(c(CN(C)CCO)c(O)c4c3C2=O)NC(=O)/C(C)=C\C=C/C(C)C(O)C(C)C(O)C(C)C(OC(C)=O)C1C (stereo not given) . 83.2

I would be grateful if you could share the reported growth for O=c1c2cccc3c(Nc4c(F)cccc4F)ccc(c32)c2nc3ccccc3n12 . 80

I would be grateful if you could share the reported growth for O=C1C=CC(=O)N1c1ccc(Cc2ccc(N3C(=O)C=CC3=O)cc2)cc1 . 164

I would be grateful if you could share the reported growth for Oc1ccc2c(=S)cc(-c3ccc(Br)cc3)oc2c1O . 71.4
